# Species: Homo sapiens
# EXPERIMENTAL DETAILS: Selectivity ratio of Ki for human A1 receptor expressed in CHO cells to Ki for human A3 receptor expressed in CHO cells
# Format: cell-based
OBSERVED PROPERTY: Ratio Ki

In the examples that follow, each entry is paired with its recorded Ratio Ki.
{"MOLECULE": "CC(=O)Nc1nc2sc(C)c(C)c2c(=O)[nH]1", "Ratio Ki": "> 57"}
{"MOLECULE": "Cc1sc2nc(NC(=O)c3ccccc3)[nH]c(=O)c2c1C", "Ratio Ki": "> 240"}
{"MOLECULE": "CC(=O)Nc1nc2sc3c(c2c(=O)[nH]1)CCC3", "Ratio Ki": "> 74"}

Query: Annotate the molecule Cc1sc2nc(N)nc(-n3cncn3)c2c1C with its measured Ratio Ki.
Result: > 1.4

Query: Annotate the molecule Nc1nc(-n2ccnc2)c2c3c(sc2n1)CCCC3 with its measured Ratio Ki.
Result: > 0.35

====

# Test system: HepG2
# EXPERIMENTAL DETAILS: Antiproliferative activity against human HepG2 after 24 hrs by MTT assay
# Assay type: functional, cell-based
# PARTICULARS: HepG2, 24 h
pIC50 values by entry
Please treat pIC50 as minus the base-10 logarithm of the molar concentration.

In the examples that follow, each entry is paired with its recorded pIC50.
{"MOLECULE": "COc1ccc(/C=C/C(=O)c2sc3nc(S)n(-c4ccccc4)c(=O)c3c2C)cc1", "REPORTED MEASUREMENT": 4.48}
{"MOLECULE": "COc1cc(/C=C/C(=O)c2sc3nc(S)n(-c4ccccc4)c(=O)c3c2C)cc(OC)c1OC", "REPORTED MEASUREMENT": 4.69}
{"MOLECULE": "Cc1c(C(=O)/C=C/c2cc(Br)cs2)sc2nc(S)n(-c3ccccc3)c(=O)c12", "REPORTED MEASUREMENT": 4.52}
{"MOLECULE": "Cc1ccc(/C=C/C(=O)c2sc3nc(S)n(-c4ccccc4)c(=O)c3c2C)cc1", "REPORTED MEASUREMENT": 5.10}

Query: Annotate the molecule Cc1c(C(=O)/C=C/c2cccs2)sc2nc(S)n(-c3ccccc3)c(=O)c12 with its measured pIC50.
Result: 4.58

====

# Tested on: MCF7
# EXPERIMENTAL DETAILS: Antiproliferative activity against human MCF7 after 24 hrs by MTT assay
# Assay type: functional, cell-based
# PARTICULARS: MCF7, 24 h
IC50 strictly under 20 µM means Criterion met; at 20 µM or over means Criterion not met.

{"MOLECULE": "Cc1ccc(/C=C/C(=O)c2sc3nc(S)n(-c4ccccc4)c(=O)c3c2C)cc1", "ASSIGNED CLASS": "Criterion met"}
{"MOLECULE": "Cc1c(C(=O)/C=C/c2cccs2)sc2nc(S)n(-c3ccccc3)c(=O)c12", "ASSIGNED CLASS": "Criterion not met"}
{"MOLECULE": "Nc1c(C(=O)Nc2ccc(Cl)cc2)sc2nc(N3CCOCC3)nc(-c3ccccc3)c12", "ASSIGNED CLASS": "Criterion met"}
{"MOLECULE": "COc1ccc(NC(=O)c2sc3nc(N4CCOCC4)nc(-c4ccccc4)c3c2N)cc1", "ASSIGNED CLASS": "Criterion not met"}

Query: Please state whether IC50 is below 20 µM for Cc1c(C(=O)/C=C/c2cc(Br)cs2)sc2nc(S)n(-c3ccccc3)c(=O)c12
Result: Criterion not met

Query: Please state whether IC50 is below 20 µM for COc1cc(/C=C/C(=O)c2sc3nc(S)n(-c4ccccc4)c(=O)c3c2C)cc(OC)c1OC
Result: Criterion met

Query: Please state whether IC50 is below 20 µM for CC(=O)O[C@H]1C(=O)[C@@]2(C)[C@H]([C@H](OC(=O)c3ccccc3)[C@]3(O)C[C@H](OC(=O)[C@H](O)[C@@H](NC(=O)c4ccccc4)c4ccccc4)C(C)=C1C3(C)C)[C@]1(OC(C)=O)CO[C@@H]1C[C@@H]2O [PACLITAXEL]
Result: Criterion not met

Query: Please state whether IC50 is below 20 µM for Nc1c(C(=O)Nc2ccc(I)cc2)sc2nc(N3CCOCC3)nc(-c3ccccc3)c12
Result: Criterion not met

Query: Please state whether IC50 is below 20 µM for Nc1c(C(=O)Nc2ccccc2)sc2nc(N3CCOCC3)nc(-c3ccccc3)c12
Result: Criterion not met

Query: Please state whether IC50 is below 20 µM for COc1ccc(/C=C/C(=O)c2sc3nc(S)n(-c4ccccc4)c(=O)c3c2C)cc1
Result: Criterion not met

====

# Test system: HepG2
# EXPERIMENTAL DETAILS: Antiproliferative activity against human HepG2 cells by MTT assay
# Assay type: functional, cell-based
OBSERVED PROPERTY: IC50 (µM)
Express it in µM; write the number only.

In the examples that follow, each entry is paired with its recorded IC50.
{"MOLECULE": "Fc1cccc(CNc2nc(C(F)(F)F)nc3sc4c(c23)CCC4)c1", "IC50 / µM": 7.31}
{"MOLECULE": "FC(F)(F)c1nc(NCc2ccc(Cl)cc2)c2c3c(sc2n1)CCC3", "IC50 / µM": 8.63}

Let us move to another entry and its IC50.
Query: Annotate the molecule FC(F)(F)c1nc(NCc2ccccc2)c2c3c(sc2n1)CCC3 with its measured IC50.
Result: 13.5

====

# TEST TARGET: Cyclin-dependent kinase 2/cyclin E1 (Homo sapiens)
# EXPERIMENTAL DETAILS: Inhibition of CDK2/cyclin E (unknown origin) expressed in baculovirus infected Sf9 insect cells using GST-Rb as substrate in presence of [33P] ATP incubated for 30 mins
pIC50 values by entry
Please treat pIC50 as minus the base-10 logarithm of the molar concentration.

Query: Quote Cyclin-dependent kinase 2/cyclin E1 (Homo sapiens) pIC50 for entry CCC(C)c1cc2c(N/N=C/c3nc(CNC)cs3)ncnc2s1 (stereo not drawn) .
Result: 6.36

Query: Quote Cyclin-dependent kinase 2/cyclin E1 (Homo sapiens) pIC50 for entry CNCc1csc(/C=N/Nc2ncnc3sc(C(C)C(C)C)cc23)n1 (stereo not drawn) .
Result: 6.06

Query: Quote Cyclin-dependent kinase 2/cyclin E1 (Homo sapiens) pIC50 for entry CC(N)c1csc(/C=N/Nc2ncnc3sc(C(C)(C)CF)cc23)n1 (stereo not drawn) .
Result: 6.17

====

pKi values recorded for Adenosine receptor A2a (Homo sapiens)
Please treat pKi as minus the base-10 logarithm of the molar concentration.

In the examples that follow, each entry is paired with its recorded pKi.
{"MOLECULE": "Cc1sc2nc(NC(=O)c3ccccc3)[nH]c(=O)c2c1C", "OBSERVED PROPERTY": "pKi", "REPORTED MEASUREMENT": 6.19}
{"MOLECULE": "Nc1nc(-n2ccnc2)c2c3c(sc2n1)CCCC3", "OBSERVED PROPERTY": "pKi", "REPORTED MEASUREMENT": 5.39}

Query: Quote Adenosine receptor A2a (Homo sapiens) pKi for entry Cc1sc2nc(N)nc(-n3cncn3)c2c1C .
Result: 5.24

====

# System: ECa-109 cell line
# EXPERIMENTAL DETAILS: Antiproliferative activity against human EC109 at 50 ug/ml after 48 hrs by MTT assay
# Assay type: functional
# PARTICULARS: ECa-109, 48 h
OBSERVED PROPERTY: inhibition at 50 µg/mL (%)
Express it in %; write the number only.

{"MOLECULE": "CCOP(=O)(OCC)C(Nn1c(C)nc2sc(CC)cc2c1=O)c1ccccc1 (stereo not given)", "inhibition at 50 µg/mL [%]": 66.3}

Query: Annotate the molecule CCc1cc2c(=O)n(/N=C/c3ccccc3)c(C)nc2s1 with its measured inhibition at 50 µg/mL.
Result: 51.4

====

Ratio Ki values by entry
# Species on record: Homo sapiens
# EXPERIMENTAL DETAILS: Selectivity ratio of Ki for human A1 receptor expressed in CHO cells to Ki for human A2A receptor expressed in CHO cells
# Type: cell-based
Write the value as a bare number.

{"MOLECULE": "Nc1nc(-n2ccnc2)c2c3c(sc2n1)CCCC3", "Ratio Ki": 2.6}

Let us move to another entry and its Ratio Ki.
Query: Annotate the molecule Cc1sc2nc(N)nc(-n3cncn3)c2c1C with its measured Ratio Ki.
Result: 7.2

====

# Tested on: A549
# EXPERIMENTAL DETAILS: Antiproliferative activity against human A549 after 18 hrs by MTT assay
# Type: functional, cell-based
# PARTICULARS: A549, 18 h
OBSERVED PROPERTY: pIC50
Please treat pIC50 as minus the base-10 logarithm of the molar concentration.

In the examples that follow, each entry is paired with its recorded pIC50.
{"MOLECULE": "Cc1ccc(-c2cc(COc3ncnc4sc(C)cc34)on2)cc1", "pIC50": 3.84}
{"MOLECULE": "Cc1cc2c(OCc3cc(-c4ccc(Cl)cc4)no3)ncnc2s1", "pIC50": 5.55}

Let us move to another entry and its pIC50.
Query: Annotate the compound CCc1cc2c(OCc3cc(-c4ccc(Cl)cc4)no3)ncnc2s1 with its measured pIC50.
Result: 4.34
